Every entry's value here was drawn from PubChem BioAssay (NCATS).

- assay: qHTS of pediatric cancer cell lines to identify multiple opportunities for drug repurposing: Primary screen for BT-37 cells (AID 1347094)
- conditions: BT-37 viability, CellTiter-Glo luminescence, 48 h; series mostly up to 57.3 µM
Inconclusive results are not listed. Active and inactive are the calls of the source. The call rests on the fitted dose curve; in most records, active means well fitted cell-killing curve with a large enough effect; inconclusive means small, poorly fitted or top-dose-only effect; inactive means flat fitted curve, though single readings scatter.
Reply using exactly one outcome from active, inactive

q: I would be grateful if you could indicate the recorded call for COc1ccc2c(c1)c1c3n2CCN(C)C3=NCC1 .
a: inactive

q: Entry CC(C(=O)O)c1cccc(Oc2ccccc2)c1 (stereo not given) : call = ?
a: inactive

q: // param item: CCN(CC)CCOC(=O)C1(c2ccccc2)CCCC1 ; yields the recorded call
a: inactive

q: Assay result, entry CC(=O)N[C@@H](CCC(=O)O)C(=O)O — outcome?
a: inactive

q: # outcome recorded in this test, key = Nc1nc(N)c(-c2ccccc2)s1
a: inactive

q: What outcome does the record of this test show for CC(C)Cn1cnc2c1c(=O)n(C)c(=O)n2C ?
a: inactive

q: Could you check what this test reported for CC(C)=CCOc1ccc(/C=C/C(=O)c2ccc(OCC=C(C)C)cc2OCC(=O)O)cc1 ?
a: inactive

q: How was Oc1ccc(Cl)cc1Cc1cc(Cl)ccc1O classified in this test?
a: active

q: Outcome logged for CC(=O)Nc1ccc(CC(=O)O)cc1 in this assay:
a: inactive

q: Please indicate how the test categorized CN1CCC(OC(c2ccccc2)c2ccccc2)CC1 .
a: inactive
